- measurement_target: T1, alpha-s1 casein from Bos taurus
- T1 chain: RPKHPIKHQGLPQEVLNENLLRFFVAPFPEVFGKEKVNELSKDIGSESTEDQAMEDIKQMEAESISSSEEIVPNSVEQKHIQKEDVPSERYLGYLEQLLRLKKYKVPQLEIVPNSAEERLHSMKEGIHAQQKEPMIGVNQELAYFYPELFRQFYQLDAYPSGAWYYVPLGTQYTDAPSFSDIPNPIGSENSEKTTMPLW
readout_type: αs1-I CN, 24 hours, 11° C. (Volume)
Enter your answer as a number in Volume; do not include the unit.

Query: Specify reported αs1-I CN, 24 hours, 11° C. for the protein shown: camel chymosin variant #157 (D290T) (protein) GKVAREPLTSYLDSQYFGKIYIGTPPQEFTVVFDTGSSDLWVPSIYCKSNVCKNHHRFDPRKSSTFRNLGKPLSIHYGTGSMEGFLGYDTVTVSNIVDPNQTVGLSTEQPGEVFTYSEFDGILGLAYPSLASEYSVPVFDNMMDRHLVARDLFSVYMDRNGQGSMLTLGAIDPSYYTGSLHWVPVTLQQYWQFTVDSVTINGVAVACVGGCQAILDTGTSVLFGPSSDILKIQMAIGATENRYGEFDVNCGNLRSMPTVVFEINGRDYPLSPSAYTSKDQGFCTSGFQGTNNSELWILGDVFIREYYSVFDRANNRVGLAKAI
Reply: 2.38e+07

Query: Specify reported αs1-I CN, 24 hours, 11° C. for the protein shown: camel chymosin variant #155 (D290Q) (protein) GKVAREPLTSYLDSQYFGKIYIGTPPQEFTVVFDTGSSDLWVPSIYCKSNVCKNHHRFDPRKSSTFRNLGKPLSIHYGTGSMEGFLGYDTVTVSNIVDPNQTVGLSTEQPGEVFTYSEFDGILGLAYPSLASEYSVPVFDNMMDRHLVARDLFSVYMDRNGQGSMLTLGAIDPSYYTGSLHWVPVTLQQYWQFTVDSVTINGVAVACVGGCQAILDTGTSVLFGPSSDILKIQMAIGATENRYGEFDVNCGNLRSMPTVVFEINGRDYPLSPSAYTSKDQGFCTSGFQGQNNSELWILGDVFIREYYSVFDRANNRVGLAKAI
Reply: 3.36e+07

These data points were gathered from patent US20150140169.
